These data points were gathered from ChEMBL document CHEMBL1147687.

measured-on: Voltage-gated inwardly rectifying potassium channel KCNH2 (Homo sapiens, UniProt Q12809)
Sequence (Q12809 whole entry): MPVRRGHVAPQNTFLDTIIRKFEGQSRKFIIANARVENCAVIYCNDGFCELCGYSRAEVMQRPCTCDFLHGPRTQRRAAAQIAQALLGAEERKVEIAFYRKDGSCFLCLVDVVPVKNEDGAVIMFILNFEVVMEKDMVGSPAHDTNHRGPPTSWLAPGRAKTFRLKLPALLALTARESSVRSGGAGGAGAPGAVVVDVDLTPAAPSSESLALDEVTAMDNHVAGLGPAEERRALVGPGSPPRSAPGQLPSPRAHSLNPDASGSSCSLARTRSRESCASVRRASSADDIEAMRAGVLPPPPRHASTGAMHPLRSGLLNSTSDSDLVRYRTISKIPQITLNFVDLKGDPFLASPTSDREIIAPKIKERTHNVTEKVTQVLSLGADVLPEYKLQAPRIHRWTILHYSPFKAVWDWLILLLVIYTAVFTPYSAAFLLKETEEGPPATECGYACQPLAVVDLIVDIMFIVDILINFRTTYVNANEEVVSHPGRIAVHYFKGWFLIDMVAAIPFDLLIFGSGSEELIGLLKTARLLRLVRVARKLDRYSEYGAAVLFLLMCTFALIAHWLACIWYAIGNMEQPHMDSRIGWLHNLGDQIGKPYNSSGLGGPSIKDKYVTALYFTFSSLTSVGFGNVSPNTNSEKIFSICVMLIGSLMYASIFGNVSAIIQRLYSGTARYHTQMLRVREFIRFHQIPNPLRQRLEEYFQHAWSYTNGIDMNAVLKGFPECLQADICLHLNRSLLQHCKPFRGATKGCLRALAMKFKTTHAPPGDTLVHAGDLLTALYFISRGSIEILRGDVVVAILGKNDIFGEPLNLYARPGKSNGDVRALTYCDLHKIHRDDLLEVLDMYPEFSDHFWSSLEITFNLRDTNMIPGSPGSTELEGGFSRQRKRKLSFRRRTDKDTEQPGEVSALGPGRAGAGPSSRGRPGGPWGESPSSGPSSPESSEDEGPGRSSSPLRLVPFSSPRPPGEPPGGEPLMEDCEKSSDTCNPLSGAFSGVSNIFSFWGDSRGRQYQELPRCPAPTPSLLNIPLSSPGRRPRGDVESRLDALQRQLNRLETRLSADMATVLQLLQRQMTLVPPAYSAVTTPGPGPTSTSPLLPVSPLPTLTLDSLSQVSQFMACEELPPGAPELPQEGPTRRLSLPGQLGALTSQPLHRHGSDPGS
assay-text: Binding affinity to hERG stably transfected in HEK293 cells
measured-parameter: Ki (µM)
# value in µM; strip the unit string

The following compounds have reported results that may help.
compound | recorded-value
Cn1c(=O)nc(NC2CCN(Cc3ccc4ccccc4c3)CC2)c2cc(Cl)ccc21 | 0.16
O=c1nc(NC2CC3CCC(C2)N3Cc2ccc3c(c2)OCO3)c2cc(Cl)ccc2n1CC(F)(F)F (stereo not given) | 0.12
O=c1nc(NC2CCN(Cc3ccc4c(c3)OCO4)CC2)c2cc(Cl)ccc2n1CC(F)(F)F | 0.445

Turning now to a further record.
Task item: Data request, read-out Ki, for "Cn1c(=O)cc(NC2CCN(C/C=C/c3ccccc3)CC2)c2cc(Cl)ccc21"
Reply: 0.03

----------
Listed compounds paired with reported log10(IC50)
measured-on: Melanin-concentrating hormone receptor 1 (Homo sapiens)
Sequence (Q99705 whole entry): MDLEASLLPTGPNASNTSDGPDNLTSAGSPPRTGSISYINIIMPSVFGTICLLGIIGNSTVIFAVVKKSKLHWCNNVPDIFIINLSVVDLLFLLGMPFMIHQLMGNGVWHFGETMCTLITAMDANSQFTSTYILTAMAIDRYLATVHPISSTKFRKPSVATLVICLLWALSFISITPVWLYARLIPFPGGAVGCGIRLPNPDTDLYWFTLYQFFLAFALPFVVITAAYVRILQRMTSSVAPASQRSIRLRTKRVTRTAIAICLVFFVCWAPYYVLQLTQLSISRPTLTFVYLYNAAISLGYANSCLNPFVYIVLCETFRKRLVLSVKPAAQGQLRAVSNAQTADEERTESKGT
assay-text: Displacement of [125I]MCH from MCHr1 expressed in IMR32 cells
Format: cell-based, IMR-32
The base-10 logarithm of IC50, taken with IC50 in nM, is what appears here.

Here is how some compounds turned out for log10(IC50).
structure | recorded-value
Cn1c(=O)cc(NC2CCN(C/C=C/c3ccccc3)CC2)c2cc(Cl)ccc21 | 1.00
Cn1c(=O)c(C#N)c(NC2CCN(Cc3ccc4ccccc4c3)CC2)c2cc(Cl)ccc21 | 1.08
Cn1c(=O)c(C#N)c(NC2CCN(Cc3ccc4c(c3)OCO4)CC2)c2cc(Cl)ccc21 | 1.38
O=c1nc(NC2CCN(Cc3ccc4c(c3)OCO4)CC2)c2cc(Cl)ccc2n1CC(F)(F)F | 0.30
Cn1c(=O)nc(NC2CCN(Cc3ccc4ncccc4c3)CC2)c2cc(Cl)ccc21 | 1.08

Now for another entry.
Task item: What measured log10(IC50) is associated with "O=c1nc(NC2CCN(Cc3ccc4ccccc4c3)CC2)c2cc(Cl)ccc2n1CC(F)(F)F" on Melanin-concentrating hormone receptor 1 (Homo sapiens)?
Reply: 0.70

----------
measured-on: Voltage-gated inwardly rectifying potassium channel KCNH2 (Homo sapiens)
assay-text: Binding affinity to hERG stably transfected in HEK293 cells
measured-parameter: pKi
pKi here is simply -log10 of the concentration when that concentration is written in mol/L.

Task item: Consider the molecule "Cn1c(=O)cc(NC2CCN(Cc3ccc4ccccc4c3)CC2)c2cc(Cl)ccc21" and give its measured pKi.
Reply: 6.67

----------
assay-text: Cmax in DIO mouse brain at 10 mg/kg
Type: ADME, organism-based
Design: dose 10 mg/kg
measured-parameter: Cmax (ng/mL)
Entry rule: numbers only, all in ng/mL.

structure | recorded-value
O=c1cc(NC2CCN(Cc3ccc4c(c3)OCO4)CC2)c2cc(Cl)ccc2n1Cc1ccncc1 | 200

Task item: Request the reported Cmax associated with "Cn1c(=O)c(C#N)c(NC2CCN(Cc3ccc4c(c3)OCO4)CC2)c2cc(Cl)ccc21"
Reply: 160

Task item: Report Cmax for "Cn1c(=O)nc(NC2CCN(Cc3ccc4c(c3)OCO4)CC2)c2cc(Cl)ccc21" please.
Reply: 230

----------
assay-text: Cmax in DIO mouse plasma at 10 mg/kg
Format: ADME, organism-based
Set-up: dose 10 mg/kg
measured-parameter: Cmax (ng/mL)
Report the value in ng/mL with no unit label.

Sample answers from the record:
structure | recorded-value
O=c1cc(NC2CCN(Cc3ccc4c(c3)OCO4)CC2)c2cc(Cl)ccc2n1Cc1ccncc1 | 680
Cn1c(=O)nc(NC2CCN(Cc3ccc4c(c3)OCO4)CC2)c2cc(Cl)ccc21 | 2200

# evaluate next
Task item: Any idea what Cmax was measured for "Cn1c(=O)c(C#N)c(NC2CCN(Cc3ccc4c(c3)OCO4)CC2)c2cc(Cl)ccc21" ?
Reply: 1600
